# experiment: Cytotoxicity against mouse HT-22 cells cocultured with BV-2 cells assessed as cell viability at 5 uM after 48 hrs by CCK8 assay (reference value: 5.19 +/- 1.60%)
# Format: toxicity, cell-based
# condition-notes: read-out: Activity
test-readout: viability at 48 h, 5 µM (%)
Numbers only; they are read as %.

1) O=C1C=CC(=O)C=C1 | 4.33

Then there is this molecule:
// query Dear colleague, I am looking for the recorded viability at 48 h, 5 µM of the following molecule: `O=C1C(=O)c2ccccc2-c2ccccc21`
// result 4.46

---

# experiment: Effective permeability of compound in PBS buffer at pH 7.4 incubated for 18 hrs by PAMPA assay
# Assay type: ADME
# condition-notes: read-out: Peff
test-readout: Papp at 18 h

// query If you can, please state the reported Papp at 18 h value of `CC12CC3CC(C)(C1)CC(NCCOCCOCCOCCOc1ccc(N4c5ccccc5N(c5ccccc5)c5c4c4ccccc4c4ccccc54)cc1)(C3)C2` .
// result 57.3 nm/s
